Biological target: T1, GFP-9S library array, motif 4 ND N98C;D124N (synthetic construct, N98C;D124N)
T1 chain: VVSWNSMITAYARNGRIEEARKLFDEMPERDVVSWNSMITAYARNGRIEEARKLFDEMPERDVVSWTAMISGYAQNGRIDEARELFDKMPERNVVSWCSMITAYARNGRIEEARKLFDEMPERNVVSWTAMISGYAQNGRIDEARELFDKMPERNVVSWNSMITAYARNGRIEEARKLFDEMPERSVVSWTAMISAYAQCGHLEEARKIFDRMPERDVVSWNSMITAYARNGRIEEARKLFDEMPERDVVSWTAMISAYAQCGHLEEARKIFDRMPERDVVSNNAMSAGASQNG
Experiment: high-throughput RNA pulldown from lysate on Ni-NTA beads; HRP: 50 mM Tris pH 8, 150 mM NaCl, 1 mM beta-mercaptoethanol, 50 ug/ml BSA, 3 ug/ml yeast RNA, 0.5% heparin; ITC and FP: Tris pH 8, 200 mM KCl, 5% glycerol; MST: 50 mM Tris pH 8, 200 mM NaCl, 1 mM DTT, BSA, heparin, 0.05% Tween 20
Details: tags: N-terminal His-eGFP; label: 5' IRDye 800CW
Readings of pKd for the listed binders
# pKd: negative log10 of molar concentration; output just the value

AUUAAACGUGA (ssRNA) [IR-rpoA-A]	7.35

Let's switch to this binder now.
Give its pKd value. Item: AUUAUACGUGA (ssRNA) [IR-rpoA-U]
6.82
